Consider the following compounds; for each one, report its ΔG.
- STUDY_SYSTEM: 14-3-3γ (Homo sapiens, UniProt P61981)
- Construct: made in house; host or cells: E. coli NiCo21 (DE3)
- Sequence (P61981 whole entry): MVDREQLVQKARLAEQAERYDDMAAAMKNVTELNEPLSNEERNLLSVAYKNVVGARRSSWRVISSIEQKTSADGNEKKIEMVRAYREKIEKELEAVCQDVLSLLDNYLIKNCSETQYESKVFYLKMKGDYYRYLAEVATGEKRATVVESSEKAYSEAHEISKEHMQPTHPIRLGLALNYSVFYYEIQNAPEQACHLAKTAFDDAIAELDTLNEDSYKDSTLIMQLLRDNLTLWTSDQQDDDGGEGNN
- ASSAY_PROTOCOL: Fluorescence anisotropy (FA) binary binding study: 14-3-3 titrated to fluorescein-labelled peptide
- SETTINGS: Table S2; calculated from FA KD; mean of n = 3
Where a SMILES comes first, the peptide text is derived from it. [ ]: non-standard residue; d: D form. The star is where a group is joined. ξ: configuration not given here. FITC = O=C1OC2(c3ccc(O)cc3Oc3cc(O)ccc32)c2ccc(NC(=S)*)cc21; Phe(4-NO2) = N[C@@H](Cc1ccc([N+](=O)[O-])cc1)C(=O)O; ξAla(4-thiazolyl) = NC(Cc1cscn1)C(=O)O; pS = N[C@@H](COP(=O)(O)O)C(=O)O; β3hS = N[C@@H](CO)CC(=O)O; Nva = CCC[C@H](N)C(=O)O; ξβ3hS = NC(CO)CC(=O)O; βAla = NCCC(=O)O

Need ΔG for each of these compounds.
1. CCC[C@H](N)C(=O)N[C@@H](Cc1ccc([N+](=O)[O-])cc1)C(=O)NC(Cc1cscn1)C(=O)N[C@@H](COP(=O)(O)O)C(=O)N[C@@H](Cc1ccc([N+](=O)[O-])cc1)C(=O)N[C@@H](CO)CC(=O)NCCC(=O)N[C@@H](Cc1ccc([N+](=O)[O-])cc1)C(=O)N[C@@H](CCCCN)C(=O)N[C@@H](C)C(=O)N[C@@H](CCCCNC(=S)Nc1ccc2c(c1)C(=O)OC21c2ccc(O)cc2Oc2cc(O)ccc21)C(N)=O (stereo partly drawn) [2a] (H-[Nva][Phe(4-NO2)][ξAla(4-thiazolyl)][pS][Phe(4-NO2)][β3hS][βAla][Phe(4-NO2)]KAK(FITC)-NH2)
2. C[C@H](NC(=O)[C@H](CCCCN)NC(=O)[C@H](Cc1ccc([N+](=O)[O-])cc1)NC(=O)CCNC(=O)C[C@H](CO)NC(=O)[C@H](Cc1ccc([N+](=O)[O-])cc1)NC(=O)[C@@H](N)COP(=O)(O)O)C(=O)N[C@@H](CCCCNC(=S)Nc1ccc2c(c1)C(=O)OC21c2ccc(O)cc2Oc2cc(O)ccc21)C(N)=O [2d] (H-[pS][Phe(4-NO2)][β3hS][βAla][Phe(4-NO2)]KAK(FITC)-NH2)

1: -10,13 kcal/mol; 2: -7,67 kcal/mol

// batch mode: one ΔG value per listed entry
1. C[C@H](NC(=O)[C@H](CCCCN)NC(=O)[C@H](Cc1ccc([N+](=O)[O-])cc1)NC(=O)CCNC(=O)C[C@H](CO)NC(=O)[C@H](Cc1ccc([N+](=O)[O-])cc1)NC(=O)[C@H](COP(=O)(O)O)NC(=O)C(N)Cc1cscn1)C(=O)N[C@@H](CCCCNC(=S)Nc1ccc2c(c1)C(=O)OC21c2ccc(O)cc2Oc2cc(O)ccc21)C(N)=O (stereo partly drawn) [2c] (H-[ξAla(4-thiazolyl)][pS][Phe(4-NO2)][β3hS][βAla][Phe(4-NO2)]KAK(FITC)-NH2)
2. CCC[C@H](NC(=O)[C@H](N)CCCCN)C(=O)N[C@@H](Cc1ccc([N+](=O)[O-])cc1)C(=O)NC(Cc1cscn1)C(=O)N[C@@H](COP(=O)(O)O)C(=O)N[C@@H](Cc1ccc([N+](=O)[O-])cc1)C(=O)NC(CO)CC(=O)NCCC(=O)N[C@@H](Cc1ccc([N+](=O)[O-])cc1)C(=O)N[C@@H](CCCCN)C(N)=O (stereo partly drawn) [compound 1] (H-[dK][Nva][Phe(4-NO2)][ξAla(4-thiazolyl)][pS][Phe(4-NO2)][ξβ3hS][βAla][Phe(4-NO2)]K-NH2)
3. C[C@H](NC(=O)[C@H](CCCCN)NC(=O)[C@H](Cc1ccc([N+](=O)[O-])cc1)NC(=O)CCNC(=O)C[C@H](CO)NC(=O)[C@H](Cc1ccc([N+](=O)[O-])cc1)NC(=O)[C@H](COP(=O)(O)O)NC(=O)C(Cc1cscn1)NC(=O)[C@@H](N)Cc1ccc([N+](=O)[O-])cc1)C(=O)N[C@@H](CCCCNC(=S)Nc1ccc2c(c1)C(=O)OC21c2ccc(O)cc2Oc2cc(O)ccc21)C(N)=O (stereo partly drawn) [2b] (H-[Phe(4-NO2)][ξAla(4-thiazolyl)][pS][Phe(4-NO2)][β3hS][βAla][Phe(4-NO2)]KAK(FITC)-NH2)

["-9,90 kcal/mol", "-10,53 kcal/mol", "-9,52 kcal/mol"]
